Entry source: PubChem BioAssay

Experiment: inhibitors of E-selectin induction by TNFa, primary screen, imaging, HUVEC, immunofluorescence, MLSMR starter and 10KST1 sets (AID 487);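 as to inhibition: signal is fraction of cell area covered by stained E-selectin grains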
Details: HUVEC TNFalpha-induced E-selectin immunofluorescence imaging, at 2 µM; stronger effect = higher value
Label 1 when inhibition is at or above -40%; otherwise label -1.

Qu. For this molecule, is measured inhibition -40% or higher? CC(C)c1nc2n[nH]c(N)c2c2c1CCCC2
Ans. 1

Qu. Could you tell me if the measured inhibition of Cc1ccc(S(=O)(=O)Cc2ccc(C(=O)N3CCN(Cc4ccccc4)CC3)o2)cc1 reaches -40% or more?
Ans. -1

Qu. Determine whether measured inhibition meets or exceeds -40% for CCOC(=O)C(C)Sc1nc(-c2cccs2)ccc1C#N (stereo unspecified)
Ans. 1

Qu. Has Cc1ccc(C(=O)NC(Cc2c[nH]c3ccccc23)C(=O)O)o1 (stereo unspecified) a recorded inhibition greater than or equal to -40%?
Ans. 1

Qu. Please check the record CCOC(=O)c1cc2c(=O)n3ccccc3nc2n(CC2CCCO2)c1=NC(C)=O (stereo unspecified) and state if its inhibition is at or above -40%.
Ans. 1

Qu. Item Cc1ccc(-c2nn(C)c(=O)c3ccccc23)cc1CNC(=O)CSc1nc2ccccc2o1 with inhibition of -40% or above?
Ans. 1

Qu. Has CCOc1ccc2c(c1)n([O-])c1c([n+]2=O)CCCC1 a recorded inhibition greater than or equal to -40%?
Ans. 1

Qu. # bool: inhibition of CC(C)OCCCNc1ncnc2c1cnn2-c1ccccc1 >= -40%
Ans. 1

Qu. Evaluate CN(C)c1ccc(C=Nc2cnn(C)c2C(N)=O)cc1 : inhibition at minimum -40%?
Ans. 1

Qu. Answer whether inhibition of Cn1c(=O)c2c(nc(NCCCO)n2Cc2cccc(C(F)(F)F)c2)n(C)c1=O is greater than or equal to -40%.
Ans. -1

---

Assay: inhibitors of Sendai virus-induced IRF3 signaling, primary screen, TLR/RLR signaling modifier project, cell-based, Sendai virus stimulus, luciferase, 10K MLSCN set (AID 602276);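 also: firefly luciferase from ISG56 promoter only with Renilla not read in this screen; 0% = Sendai virus plus DMSO and 100% = medium plus DMSO without virus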
Details: HEK293 RL24 IRF3 luciferase reporter, at 10 µM, stronger effect = higher value
measure.name: inhibition (%)
API: value field is a number in %; no unit string.

Please fill in: inhibition reported for CC1(C)CC(=O)C2=C(C1)OC(=O)C2(NC(=O)c1cccs1)C(F)(F)F (centres undefined) = 1.37

inhibition reading for CCOc1cccc(-c2nnc3sc(COc4ccc(OC)cc4)nn23)c1 : 7.6

Value of measured inhibition for the entry COc1cccc(-c2cc(C(=O)N3CCc4ccccc4C3)no2)c1 : -3.65

So, COc1ccc(-c2nn3c(-c4cccc(C)c4)nnc3s2)cc1OC ? Its inhibition was -18.2

---

Experiment: inhibitors of mutant huntingtin aggregation, primary screen, imaging, exon1htt(103Q)mCFP cells, high-content imaging (AID 483);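 also: compound exposure lasted 3 days before fixation; percent of the per-plate median nuclei count of sample wells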
Conditions: exon1htt(103Q)mCFP cell line, aggregate imaging, at 2 µM; measured here: cell count, toxicity
Consider the following molecules; for each one, report its nuclei count.
Number in %, nothing else.

response.value for Cc1cccc(-c2nc(CN3CCCC(C(=O)NC4CCCC4)C3)c(C)o2)c1 (configuration not stated) (field: nuclei count) = 111

Record summary for CC(C)=CCCC(C)CN(C)CCc1ccccn1 (configuration not stated) : reported nuclei count = 92.8

Noted for O=C(COC(=O)C1CC1)c1c[nH]c2ccccc12 : its nuclei count reads 114

Form field nuclei count, entry Cc1ccccc1-n1c(=O)c2ccccc2n2nnnc12 : 125

The molecule listed as O=S(=O)(Nc1ccccn1)c1ccc(Oc2ccccc2)cc1 shows nuclei count equal to 59.1

// nuclei count value for Cn1cc(Br)c(C(=O)NC2CCCCC2)n1 : 105

For O=C(C1CCN(C2CC(=O)N(c3ccc(F)cc3)C2=O)CC1)N1CCOCC1 (configuration not stated) the molecule record lists nuclei count as 79.5

Entry CCOC(=O)N1CCN(CCC(=O)c2ccc(Cl)cc2)CC1 , nuclei count reported as 116

Per the record, CC1=CCC(C(C)(C)NC(=O)c2ccccc2)C/C1=N\O (configuration not stated) has nuclei count of 89.1

Sure, the documented nuclei count for COc1ccc(OCC(=O)Nc2cccc3ncccc23)cc1 is 84.8

# nuclei count (molecule: C=CCOc1ccccc1/C=c1\sc2nc(=O)c(C)nn2c1=O ) is 100

CCCc1cc(C(=O)Nc2ccccc2SC)no1 has a reported nuclei count of 108

---

Assay: inhibitors of E-selectin induction by TNFa, primary screen, imaging, HUVEC, immunofluorescence, MLSMR starter and 10KST1 sets (AID 487);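 as to nuclei count: 100% = median nuclei count of all wells on the same plate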
Conditions: HUVEC TNFalpha-induced E-selectin immunofluorescence imaging, at 2 µM; measured here: cell number, toxicity
Where a SMILES comes first, the peptide text is derived from it. The star is where a group is joined. Boc = CC(C)(C)OC(=O)*
measure.name: nuclei count (%)
The reply should be a number in %, with the unit left off.

nuclei count measured on CCOc1ccc(NC(=O)CN(c2cc(C)cc(C)c2)S(=O)(=O)c2c(C)noc2C)cc1 = 105

nuclei count reported for this compound C=CCSc1nc2sc(C)c(C)c2c(=O)[nH]1 : 107

response.value for CCC(C)(C)n1nnnc1C(c1cc2cc(OC)ccc2[nH]c1=O)N1CCc2ccccc21 (stereo not drawn) (field: nuclei count) = 116

Form field nuclei count, entry CC(C(=O)Nc1ccccc1-c1ccccc1)N1CCOCC1 (stereo not drawn) : 127

Kindly note the recorded nuclei count for c1coc(Cn2nnnc2CN2CCN(C3CCCC3)CC2)c1 , which is 107

Notebook: Cc1ccc(N2CCN(S(=O)(=O)N(C)C)CC2)c(C)c1 , nuclei count read as 107

The value of nuclei count measured for the compound O=C(CCNS(=O)(=O)c1cccc2nsnc12)NCc1cccs1 turned out to be 118

For record Cc1ccc(C(=O)NCc2ccc3c(c2)OCO3)cc1S(=O)(=O)N1CCCCC1 the listed nuclei count is 113

// sample COc1ccc(C2C3=C(CCCC3=O)Nc3nc(SCc4ccccc4)nn32)cc1OC (stereo not drawn) , its nuclei count was 105

The measured nuclei count associated with CCOc1ccccc1NC(=O)CN(C)S(=O)(=O)c1cccc2nsnc12 reads 119

Form: compound = COc1cccc(OC)c1OCCNCCO ; nuclei count = 90.6

Reported nuclei count for Cc1ccc(-c2noc(CN3C(C)CCCC3C)n2)cc1 (stereo not drawn) was 101

Form: compound = Cc1cccnc1-n1c(CCN2C(=O)c3ccccc3C2=O)nc2ccccc2c1=O ; nuclei count = 83.7

Data point: CN1CCc2c(C#N)c(N3CCCCC3)nc(NCc3ccccc3)c2C1 ; nuclei count = 143

So, O=C(CCS(=O)(=O)c1cccc2nsnc12)NCc1ccccc1 ? Its nuclei count was 114

get_value(item= CCNc1ccc(C(=O)OCC)cc1NC(=O)c1cc(S(=O)(=O)N2CCOCC2)ccc1C , readout=nuclei count) returns 114

So, CCCSc1nnc2n(Cc3ccccc3)c(=O)c3c4c(sc3n12)CCC4 ? Its nuclei count was 170

Input COc1ccc(C2NC(=O)NC(O)(C(F)(F)F)C2C(=O)c2ccc(F)cc2)cc1 (stereo not drawn) . Output nuclei count: 159

Record Cc1ccc(C(=O)C2=C(O)C(=O)N(CCN3CCOCC3)C2c2ccccn2)o1 (stereo not drawn) , field nuclei count: 147

For record COc1cc(NC(=O)CSCc2cnn(-c3ccccc3)c2-n2cccc2)cc(OC)c1 the listed nuclei count is 98.1

Per the records, this compound ( COc1ccc(NC(=O)CS(=O)CC(=O)Nc2cc(Cl)ccc2OC)cc1 (stereo not drawn) ) has nuclei count equal to 96

Briefly, nuclei count measured for CCC(C)(C(=O)NC1CCCC1)N(C(=O)c1cnccn1)c1c(C)n(C)n(-c2ccccc2)c1=O (stereo not drawn) : 89.6

Measured nuclei count, C=CCOc1ccc(C2/C(=C(\O)c3c(C)[nH]c(C(=O)OC)c3C)C(=O)C(=O)N2CCN(C)C)cc1 (stereo not drawn) : 118

nuclei count for CCCC(=O)Nc1cnc(NC(=O)c2cccc(F)c2)cc1C is 103

Sure, the documented nuclei count for CCOC(=O)C(C)Oc1ccc2c(C)cc(=O)oc2c1C(C)=O (stereo not drawn) is 198

The recorded nuclei count for entry O=C1c2ccccc2S(=O)(=O)N1CC(O)Cn1c2ccccc2c2ccccc21 (stereo not drawn) equals 118

// recorded nuclei count for Cc1cc(NC(CC(C)C)C(=O)O)nc(Cc2ccccc2)n1 (stereo not drawn) : 188

// nuclei count value for Cc1cccc(-n2c(O)c(C=Nc3ccccc3N)c(=O)[nH]c2=O)c1 : 120

What the record says about CSCCC(NC(=O)OC(C)(C)C)C(=O)NC(CC(C)C)C(N)=O (stereo not drawn) (Boc-Met-Leu-NH2; configuration not given here) : nuclei count is 101

Field nuclei count (entry N#CC1=C(N)N(c2ccc(Oc3ccccc3)cc2)C(=O)C1 ) reads 128

nuclei count in this record for C=CCn1c(=O)c2ccccc2n2c(SCC(=O)Nc3cc(C)on3)nnc12 : 153

The reported value for Cc1cc2c(C)nc(Cc3ccccc3)nc2o1 in terms of nuclei count is 149

// recorded nuclei count for CC(C)=CCCC(C)CN(C)CCc1ccccn1 (stereo not drawn) : 108

For reference, reported nuclei count for CC1=C(C(=O)Nc2ccccc2)C(c2ccco2)C(C#N)=C(SCC(=O)Nc2cccc(C)c2C)N1 (stereo not drawn) stands at 129

O=S(=O)(Nc1ccc2c(c1)OCO2)c1ccc(Br)s1 has a reported nuclei count of 95.6

Just so you know, measured nuclei count for CC(NC(=O)CSc1nnc(COc2ccccc2)o1)c1ccccc1 (stereo not drawn) came out at 134

Measured nuclei count, CC(=O)Nc1ccc(S(=O)(=O)Nc2nc3ccccc3nc2N2CCCC2)cc1 : 128

COc1ccc(C2=NOC(C(=O)NC3CCCCC3)C2)cc1OC (stereo not drawn) yielded nuclei count of 96.1

Documented nuclei count of COC(=O)c1ccc(CSc2nc(N3CCOCC3)c3c(c2C#N)CC(C)(C)OC3)o1 : 151

COc1ccc(-c2oc3ncn(CCN4CCOCC4)c(=N)c3c2-c2ccc(OC)cc2)cc1 has a reported nuclei count of 98

// recorded nuclei count for O=C(CC(c1ccco1)S(=O)(=O)c1ccccc1)c1ccc(F)cc1 (stereo not drawn) : 138

The compound listed as CC1(C)CC(=O)C(C(=O)CCCCC(=O)C2C(=O)CC(C)(C)CC2=O)C(=O)C1 has a reported nuclei count of 80

# nuclei count of CCC(=O)Nc1nc2ccccc2n1CCN(C)C = 131
